details: 338.15 K; Liquid; Closed cell (Static) method
quantity: vapor or sublimation pressure (kPa)
Report the value in kPa with no unit label.

Entry under test: CCC(C)O (stereo not given) [butan-2-ol] . Its vapor or sublimation pressure was 23.49

Just so you know, measured vapor or sublimation pressure for CCCO [propan-1-ol] came out at 26.41

Reported vapor or sublimation pressure ( CC(C)O [propan-2-ol] ) = 48.66

Entry under test: CCCCO [butan-1-ol] . Its vapor or sublimation pressure was 10.56

Memo: CCO [ethanol] , reported vapor or sublimation pressure: 58.58

----------
conditions: 303.15 K; Liquid; Closed cell (Static) method
Kind request: treat 8 kPa as inclusive, so vapor or sublimation pressure at 8 kPa or higher is Satisfied, anything lower is Not satisfied.

[Q] Could you tell me if the measured vapor or sublimation pressure of CCCO reaches 8 kPa or more?
[A] Not satisfied

[Q] In plain terms: is recorded vapor or sublimation pressure at least 8 kPa for CCC(C)O (stereo unspecified) ?
[A] Not satisfied

[Q] State whether the measured vapor or sublimation pressure reaches 8 kPa, counting equality as reaching it, for CCO
[A] Satisfied

[Q] Assess whether reported vapor or sublimation pressure for CO sits at 8 kPa or higher.
[A] Satisfied

[Q] vapor or sublimation pressure >= 8 kPa for CCCCO ?
[A] Not satisfied

----------
details: 308.15 K; Liquid; Closed cell (Static) method
Field: vapor or sublimation pressure. Provide a value for each of the molecules that follow.
The response must be a number in kPa with no trailing unit.

The measured vapor or sublimation pressure associated with CC(C)O reads 10.52

Input CCO . Output vapor or sublimation pressure: 13.84

// CCCO : vapor or sublimation pressure value = 5.374

Data point: CCCCO ; vapor or sublimation pressure = 1.841

get_value(item= CCC(C)O (stereo unspecified) , readout=vapor or sublimation pressure) returns 4.588

vapor or sublimation pressure in this record for CO : 27.98

----------
settings: 328.15 K; Liquid; Closed cell (Static) method
Assign vapor or sublimation pressure to each entry below.
The reply should be a number in kPa, with the unit left off.

For reference, reported vapor or sublimation pressure for CO [methanol] stands at 68.94

The value of vapor or sublimation pressure measured for the compound CCC(C)O (stereo unspecified) [butan-2-ol] turned out to be 14.13

Note to self: vapor or sublimation pressure recorded for CCO [ethanol] was 37.46

Entry under test: CCCCO [butan-1-ol] . Its vapor or sublimation pressure was 6.171

vapor or sublimation pressure reading for CCCO [propan-1-ol] : 16.14

Query CC(C)O [propan-2-ol] yields vapor or sublimation pressure of 30.35

----------
conditions: 298.15 K; Liquid; Closed cell (Static) method
Cut-off 3 kPa on vapor or sublimation pressure, inclusive. At or above means y; below means n.

[Q] Answer whether vapor or sublimation pressure of CC(C)O is greater than or equal to 3 kPa.
[A] y

[Q] Dear colleague, could you confirm whether CCO has vapor or sublimation pressure at or above 3 kPa?
[A] y

[Q] Check if vapor or sublimation pressure >= 3 kPa (inclusive). Item: CO
[A] y

[Q] Identify whether the reported vapor or sublimation pressure of the following molecule is 3 kPa or greater: CCC(C)O (stereo unspecified)
[A] n

[Q] Reported vapor or sublimation pressure at or above 3 kPa? CCCCO
[A] n

[Q] Item CCCO with vapor or sublimation pressure of 3 kPa or above?
[A] n
